src = patent US20070254831A1

measured on: T1, soluble human FcRn (human, UniProt P55899 24-297; P61769 21-119, biotinylated (Sulfo-NHS-LC-Biotin) in the ELISA; amine-coupled to CM5 chip in SPR)
T1 construct: also called shFcRn; biotinylated shFcRn
assay procedure: SPR, pH 6
pKd: −log10 of the molar value. Bridge positions count the residues as written; N and C are the ends. Ends that are not written are not given here.
Please mark yes (1) if the recorded pKd is equal to or greater than 5, and no (0) if it falls below.

Check the entry QRFCTGHFGGLYPCNGP-NH2 (disulfide 4-14 (inferred)) [SEQ ID NO:1] : does pKd equal or exceed 5?
yes (1)
